study.target: Plasmodium vivax guanylate kinase (PvGK) (Plasmodium vivax)
Construct: gene PVX_099895; Full-length guanylate kinase with an N-terminal 6-histidine tag (23545 Da)
Sequence (A5K709 entry or part of it): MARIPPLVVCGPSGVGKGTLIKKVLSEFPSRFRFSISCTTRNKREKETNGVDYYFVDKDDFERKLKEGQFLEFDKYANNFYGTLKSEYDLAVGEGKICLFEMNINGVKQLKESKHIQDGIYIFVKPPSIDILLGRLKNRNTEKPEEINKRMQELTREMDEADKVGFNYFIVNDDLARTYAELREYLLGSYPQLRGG
test.description: native ESI-FT-ICR-MS titration (optimized source); confirmed by competition with GMP ([…])
Type: binding
assay.endpoint: pKd
Would you please state pKd, meaning minus log10 of the concentration in mol/L, as a bare number?

For record Nc1nc2c(ncn2[C@@H]2O[C@H](COP(=O)(O)OP(=O)(O)O)[C@@H](O)[C@H]2O)c(=O)[nH]1 [GDP] the listed pKd is 6.52

Source of measurements: paper PMC4972871
